# Tested Target: stabilized BG505 SOSIP construct MD39 (HIV isolate BG505)
# Run Description: competition ELISA on MD39 vs PGDM1400
Measured competition value accompanies every entry in the list below.
Property Name: competition value

INSERT INTO results (binder, recorded_result) VALUES
  ('NC-Cow4 (antibody) VH: KVQLRESGPSLVKPSQTLSLTCMVSGFSLNDEAVGWVRQAPGKALEWLGSIDAGGSTGYNPGLKSRLSISKDNSKNQVSLSVSSVTTEDSATYYCGTVHQRTQPKQTCPNGYSDDSALRYYSRCSDRDCWRCTGTTYYDTCQCSSYTYIHTYELYVDAWGQGLLVTVSS VL: QAVLTQPSSVSGSLGQRVSITCSGSSSNVGNGYVSWYQLIPGSAPRTLIYGDTSRASGVPDRFSGSRSGNTATLTISSLQAEDEADYFCASPEDSSSNAVFGSGTTLTVL', 22),
  ('NC-Cow5 (antibody) VH: QVQLQESGPSLVKPSQTLSLTCMVSGFSLNDKAVGWVRQAPGKALEWLGSIDAGGSTGYNPGLKSRLSISKDNSKNQVSLSVSSVTTEDSATYYCGTVHQRTQPKQTCPNGYSDDSALRYYSRCSDRDCWRCTGTTYYDTCQCSSYTYIHTYELYVDAWGQGLLVTVSS VL: QDVLTQPSSVSGSLGQRVSITCSGSSSNVGNGYVSWYQLIPGSAPRTLIYGDTSRASGVPDRFSGSRSGNTATLTISSLQAEDEADYFCASPEDSSSNAVFGSGTTLTVL', 3),
  ('NC-Cow7 (antibody) VH: KVQLRESGPSLVKPFETLSLTCTGSGFSLSDKAAGWVRQAPGKAPEWLGSIDTGGNTGYNPGLKYRLSITKDNSKSQVSLSVSSMTSEDSATYYCTTVHQKAYKKVCPDDYSSNPDCVRLYGWSHCDCMRDSFGGWCRADGCSSTVEIGPYEWYVNAWGQGLLVTVSS VL: QAVLTQPSSVSGSLGQRVSITCSGSSSNVGNGYVSWYQLIPGSAPRSLIYGDTSRASGVPDRFSGSRSGNTATLTISSLQAEDEADYFCASPEDSSSNGVFGSGTTLTVL', 12),
  ('NC-Cow2 (antibody) VH: KVQLRESGPSLVKPSQTLSLTCMVSGSSLSDKAVGWVRQAPGKALEWLGIISAGGNRGYNSGLRSRLTISKDNSKNEVSLRVRSVTTEDSATYFCGTVHQKTQRKPICPDGYSDDSTLRYYSRCSDRDCWRCTGTTYYDTCQCGTYTWIDTHELHVDAWGQGLLVTVSS VL: QAVLNQPSSVSGSLGQRVSITCSGSSSNVGNGYVSWYQLIPGSAPRTLIYGDTSRASGVPDRFSGSRSGNTATLTISSLQAEDEADYFCASAEDSSSNAVFGSGTTLTVL', 18);
